Collected melting point values appear next to each entry.

INSERT INTO results (compound, readoutlabel, endpointresult) VALUES
  ('OCCOC(c1ccccc1)c1ccccc1', 'melting point', '95 to 97 °C');

### Prompt What melting point value was documented for this compound, CC(C)N1CC(C(C(N)=O)(c2ccccc2)c2ccccn2)C1 (stereo not given) ?
### Response 140 to 141 °C

### Prompt What melting point value was documented for this compound, CCCCCCc1ccc(C#Cc2ccc(C=O)cc2)cc1 ?
### Response 67 °C

### Prompt What melting point value was documented for this compound, CNC(=O)c1ccc(N2CCC(OC3CCN(C4CCC4)CC3)CC2)cn1 ?
### Response 110 °C

### Prompt What melting point value was documented for this compound, COC(=O)c1cn(C2CC2)c2c(OC)c(N3CCC(CN)(CF)C3)c(F)cc2c1=O (stereo not given) ?
### Response 143 to 145 °C

### Prompt What melting point value was documented for this compound, COc1ccc(CN2N=C(c3ccc(OC)c(OC)c3)[C@@H]3CCCC[C@@H]3C2=O)cc1 (relative stereo) ?
### Response 77 to 78 °C

### Prompt What melting point value was documented for this compound, NC(=O)c1ccc(C(c2ccccc2[N+](=O)[O-])(C(F)(F)F)C(F)(F)F)cc1 ?
### Response 147 to 148 °C
